# TARGET SYSTEM: Neutrophil elastase (Homo sapiens, UniProt P08246)
# Sequence (P08246 whole entry): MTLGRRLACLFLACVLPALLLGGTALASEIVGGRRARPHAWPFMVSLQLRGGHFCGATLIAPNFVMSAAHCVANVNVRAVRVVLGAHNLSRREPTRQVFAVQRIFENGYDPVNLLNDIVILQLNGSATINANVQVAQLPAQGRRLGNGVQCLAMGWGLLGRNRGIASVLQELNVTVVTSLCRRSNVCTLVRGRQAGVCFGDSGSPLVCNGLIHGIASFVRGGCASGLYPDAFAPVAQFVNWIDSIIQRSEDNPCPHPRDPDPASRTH
# TEST DETAILS: Inhibitory activity against human sputum elastase (HSE)
REPORTED ENDPOINT: IC50 (nM)
# output: bare number, implied unit nM

CO[C@H]1C(=O)N2C(C(=O)OC(C)(C)C)=C(C)C(=C(SC)SC)S(=O)(=O)C12 (stereo not given in full); 74
CO[C@H]1C(=O)N2C(C(=O)OC(C)(C)C)=C(C)C(=C3SCCS3)S(=O)(=O)C12 (stereo not given in full); 380
CO[C@H]1C(=O)N2C(C(=O)OC(C)(C)C)=C(C)CS(=O)(=O)C12 (stereo not given in full); 1800
CO[C@H]1C(=O)N2C(C(=O)OC(C)(C)C)=C(C)C(=C3SCC(O)CS3)S(=O)(=O)C12 (stereo not given in full); 330

Exercise: So what IC50 did CO[C@H]1C(=O)N2C(C(=O)OC(C)(C)C)=C(C)C(=C3SCC(OC(C)=O)CS3)S(=O)(=O)C12 (stereo not given in full) get with Neutrophil elastase (Homo sapiens, UniProt P08246)?
Key: 320
